Test system: MOLT-4 leukemia
assay: NCI-60 one-dose screen, 48 h (100 = growth as untreated, 0 = no growth, -100 = all killed)
applied.conditions: 10 µM unless noted
About 83,000 compounds went through this panel and 20% of them were active in at least one assay; those are over-represented in the sample as a whole.
Form field: growth (one value per entry).
measure.name: growth (%)

> print(dat)
                                    compound  measure.name  assay.result
 1  COc1cc(/C=C/C(=O)/C=C/c2cc3ccc(Cl)cc3[nH]c2=O)ccc1O        growth          30.3
 2  Cc1cc2ccccc2c[n+]1CC(=O)c1ccc(-c2ccccc2)cc1        growth          49.3
 3  O=C(Nc1nc2ccc(C(F)(F)F)cc2s1)c1cc(Cl)ccc1O        growth          1.46
 4  Cc1nccc2c3ccc(OCc4cn(-c5ccccc5)nn4)cc3n(CCCc3ccccc3)c12        growth          35.3
 5  COc1ccc2c(c1)Oc1nc(N)c(C#N)c(N)c1C2Sc1ccc(O)cc1 (stereo not given)        growth          34.7
 6  OCCNc1nc(NCCO)nc(Nc2ccc(C3=NN(c4cc(Cl)cc(Cl)c4)C(c4ccccc4)C3)cc2)n1 (stereo not given)        growth          20.5
 7  COc1ccc2nc(-c3ccc(Cl)cc3)cc(C(=O)N3N=C(c4ccc(N)cc4)CC3c3ccccc3)c2c1 (stereo not given)        growth          43.2
 8  CC(C)(C)c1nn(-c2ccccc2)c2c1COCN2Cc1ccc(Cl)cc1        growth          68.1
 9  O=C1CC23OC(C(O)c4ccccc4N12)C1C(c2ccccc2)=NOC13 (stereo not given)        growth          37.2
10     Nc1ccc2c(c1)C(=O)C(=O)c1c-2nc2ccccn12        growth         -32.8
11  Cc1nnc(/N=C2\NC(=O)/C(=C/c3ccc(N(C)C)cc3)S2)s1        growth          80.8
12  N#CC1(C#N)C2=C(CCCC2)NC(c2c(F)cccc2Cl)C1(C#N)C#N (stereo not given)        growth          43.5
13  COc1cc(/C=N/Nc2nc(-c3ccc(F)cc3)c(C#N)c(N3CCOCC3)n2)ccc1O        growth          73.4
14  COc1ccc(-c2nc(C#N)c(NCC(c3ccc(Cl)cc3)N3CCCCC3)o2)cc1 (stereo not given)        growth          75.9
15  COc1cc(C2=NN(C(C)=O)C(c3cccc(Nc4ccnc5cc(C(F)(F)F)ccc45)c3)C2)cc(OC)c1OC (stereo not given)        growth          22.3
16        c1ccc2nc(N3CCOCC3)c(N3CCCCC3)nc2c1        growth          95.6
17  COc1ccc2c(c1)/C(=C1\S/C(=N/c3nnc(C)s3)NC1=O)C(=O)N2Cc1ccc(Cl)cc1        growth          24.6
18              COc1ccc(Cl)c([N+](=O)[O-])c1        growth          95.2
19  CCCCn1c(=O)c(/C=C/C(=O)/C=C/c2ccc(OC)cc2)cc2cc(Cl)ccc21        growth          44.4
20  COc1cc(C(=O)N2CCN(c3ccccc3OC)CC2)c(NC(=O)c2cnccn2)cc1OCc1ccccc1        growth          52.4

----------
System: SK-MEL-28 melanoma
assay: NCI-60 one-dose screen, 48 h (100 = growth as untreated, 0 = no growth, -100 = all killed)
applied.conditions: 10 µM unless noted
Description: Growth inhibition of the SK-MEL-28 human tumor cell line is measured as a screen for anti-cancer activity. Cells are grown in 96 well plates and exposed to the test compound for 48 hours. Compounds are tested at a single concentration, which is 10^-5 M for most compounds. The reported endpoint is percent growth (GI% or GIPRCNT), where numbers from 0 - 100% represent growth inhibition, and numbers from -100% - 0 represent cell death. For example, a value of 40 represents 60% growth inhibition. […]
The panel holds about 83,000 compounds, 20% with a hit somewhere; the sample as a whole holds those more often.
Collected growth values appear next to each entry.
measure.name: growth (%)

> print(dat)
                           substance.smiles  measure.name  assay.result
1            COc1ccc2[nH]c3nc4cnccc4cc3c2c1        growth           114
2  CC(C)(C)CC(C)(C)Cc1ccc(OCCOCC[N+](C)(C)Cc2ccccc2)cc1        growth          20.5
3  COc1cc(/C=C/C(=O)c2ccc(NC(=O)CSc3nnc(-c4cc(OC)c(OC)c(OC)c4)n3-c3ccccc3)cc2)cc(OC)c1OC        growth          33.3
4  COc1ccc(NC(=O)Nc2ccc(Nc3nc(C)cc(Nc4ccc(C)cc4)n3)cc2)cc1        growth         -76.8
5  Cc1c(Cl)cccc1NC(=O)c1sc2nc3c(cc2c1N)COCC3        growth          58.6

----------
System: UACC-62 melanoma
assay: NCI-60 one-dose screen, 48 h (100 = growth as untreated, 0 = no growth, -100 = all killed)
applied.conditions: 10 µM unless noted
Description: Growth inhibition of the UACC-62 human tumor cell line is measured as a screen for anti-cancer activity. Cells are grown in 96 well plates and exposed to the test compound for 48 hours. Compounds are tested at a single concentration, which is 10^-5 M for most compounds. The reported endpoint is percent growth (GI% or GIPRCNT), where numbers from 0 - 100% represent growth inhibition, and numbers from -100% - 0 represent cell death. For example, a value of 40 represents 60% growth inhibition. […]
This is part of a sample that, as a whole, favours compounds with a hit. Of some 83,000 tested, about 20% had one in any assay.

substance.smiles	study.system	unit.name	growth
c1ccc(-c2cn3ccnc3c(-c3ccc4c(c3)ncn4C3CCCCC3)n2)cc1	UACC-62 melanoma	%	98
COc1ccc(-n2cc(COc3ccc4c5ccnc(C)c5n(CC(C)C)c4c3)nn2)cc1	UACC-62 melanoma	%	71
COc1ccc(NC(=O)c2ccc(Nc3ncnc4[nH]c(C)c(C)c34)cc2)cc1	UACC-62 melanoma	%	99.6
C=C(C)[C@@H]1CC[C@]2(C(=O)OCCOCCOCC[P+](c3ccccc3)(c3ccccc3)c3ccccc3)CC[C@]3(C)[C@H](CC[C@@H]4[C@@]5(C)CC[C@H](OC(C)=O)C(C)(C)[C@@H]5CC[C@]43C)[C@@H]12	UACC-62 melanoma	%	-86.5
CCCCc1n(Cc2ccc3ccccc3n2)cc[n+]1Cc1ccc2ccccc2c1	UACC-62 melanoma	%	-57.7

----------
System: RPMI-8226 leukemia
assay: NCI-60 one-dose screen, 48 h
applied.conditions: 10 µM unless noted
The panel holds about 83,000 compounds, 20% with a hit somewhere; the sample as a whole holds those more often. Calls of active or inactive are those of the source. How the source made its calls: active means growth percent below 10; inactive means the rest.
Possible outcomes: 1 (yes) (active), 0 (no) (inactive)

molecule	group.label
COc1ccc2oc(=O)cc(-c3c(C#N)c(N)n4nc(N)c(C#N)c4c3C#N)c2c1	0 (no)
O=c1nc(-c2ccccc2)c2cc(-c3ccc(N4CCCC4)nc3)ccc2[nH]1	0 (no)
CCOC(=O)c1c(C)nc2c(c1N)CC(=O)N2CCc1ccccc1	1 (yes)
CCSc1nc(Cl)c(C#N)c(-c2ccc(F)cc2)n1	0 (no)
CCCS(=O)(=O)Nc1ccc(F)c(C(=O)c2c[nH]c3ncc(-c4ccc(OCCCC5CCCCN5)nc4)cc23)c1F (stereo not given)	0 (no)
COc1cc(-c2csc(NC(=O)Nc3cc(Cl)cc(Cl)c3)n2)cc(OC)c1OC	0 (no)
CC1=C/C(=N\N=C2/C=C(C)CC(C)(C)C2)CC(C)(C)C1	0 (no)
Cc1ccc(-c2nc(C#N)c(S(=O)(=O)N(C)CCO)o2)cc1	0 (no)
COC(=O)c1nc(-c2ccccc2)oc1S(=O)(=O)n1nc(-c2ccccc2)cc1N	0 (no)
CC(=O)OCC1OC(OC2C(COC(C)=O)OC(OCCC[S-])C(OC(C)=O)C2OC(C)=O)C(OC(C)=O)C(OC(C)=O)C1OC(C)=O.[Au+].c1ccc(CN2[CH-]N(Cc3ccccc3)C(c3ccccc3)=C2c2ccccc2)cc1 (stereo not given)	1 (yes)

----------
Test system: 786-0 renal
assay: NCI-60 one-dose screen, 48 h (100 = growth as untreated, 0 = no growth, -100 = all killed)
applied.conditions: 10 µM unless noted
About 83,000 compounds went through this panel and 20% of them were active in at least one assay; those are over-represented in the sample as a whole.
# growth values compiled below
measure.name: growth (%)

> print(dat)
                           substance.smiles  assay.result
1  CC(C)C[C@H](C(=O)O)N(C)C(=O)[C@@H]1CCCN1C(=O)[C@H](C)OC(=O)[C@H](CCC(N)=O)NC(=O)[C@@H]1CCC(=O)N1          96.1
2  CCOC(=O)c1c(C)nc2c(c1N)/C(=C/c1cccs1)C(=O)N2Cc1ccccc1          52.1
3  Cc1cc(C)cc(Nc2nccc(-c3c(-c4ccc(F)cc4)ncn3C3CCNCC3)n2)c1          11.8
4  NCCCn1c2c(c3cc(-c4ccn[nH]4)ccc3c1=O)C(=O)c1ccccc1-2            41
